Biological target: recombinant human integrin α4β7 (binding to recombinant human MAdCAM-1) (Homo sapiens (Human), UniProt P13612+P26010)
Sequence (P13612 34-970): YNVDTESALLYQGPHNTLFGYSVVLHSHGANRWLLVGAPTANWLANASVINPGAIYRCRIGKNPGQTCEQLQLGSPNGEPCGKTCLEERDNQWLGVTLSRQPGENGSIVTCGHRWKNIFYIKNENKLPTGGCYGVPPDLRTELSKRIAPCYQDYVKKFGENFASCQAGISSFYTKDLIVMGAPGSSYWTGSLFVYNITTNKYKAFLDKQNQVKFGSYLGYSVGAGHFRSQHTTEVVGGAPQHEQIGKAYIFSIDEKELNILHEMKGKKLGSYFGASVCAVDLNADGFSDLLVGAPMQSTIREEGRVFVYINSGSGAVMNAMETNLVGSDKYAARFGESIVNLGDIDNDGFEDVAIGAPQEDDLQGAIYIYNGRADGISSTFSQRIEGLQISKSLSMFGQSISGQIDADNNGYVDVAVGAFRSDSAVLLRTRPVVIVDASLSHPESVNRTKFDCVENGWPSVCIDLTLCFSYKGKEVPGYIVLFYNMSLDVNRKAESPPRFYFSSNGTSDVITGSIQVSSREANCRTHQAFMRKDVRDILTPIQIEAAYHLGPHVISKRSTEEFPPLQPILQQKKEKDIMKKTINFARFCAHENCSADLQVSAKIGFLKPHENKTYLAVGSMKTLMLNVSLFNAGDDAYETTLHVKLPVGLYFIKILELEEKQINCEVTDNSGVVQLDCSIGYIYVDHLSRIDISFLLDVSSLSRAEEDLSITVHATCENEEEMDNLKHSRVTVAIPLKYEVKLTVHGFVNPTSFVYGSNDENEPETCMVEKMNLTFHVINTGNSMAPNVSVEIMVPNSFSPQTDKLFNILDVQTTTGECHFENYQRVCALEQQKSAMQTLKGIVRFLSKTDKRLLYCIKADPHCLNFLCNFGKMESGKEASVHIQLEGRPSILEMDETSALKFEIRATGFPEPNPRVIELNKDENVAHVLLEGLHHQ
Sequence (P26010 20-723): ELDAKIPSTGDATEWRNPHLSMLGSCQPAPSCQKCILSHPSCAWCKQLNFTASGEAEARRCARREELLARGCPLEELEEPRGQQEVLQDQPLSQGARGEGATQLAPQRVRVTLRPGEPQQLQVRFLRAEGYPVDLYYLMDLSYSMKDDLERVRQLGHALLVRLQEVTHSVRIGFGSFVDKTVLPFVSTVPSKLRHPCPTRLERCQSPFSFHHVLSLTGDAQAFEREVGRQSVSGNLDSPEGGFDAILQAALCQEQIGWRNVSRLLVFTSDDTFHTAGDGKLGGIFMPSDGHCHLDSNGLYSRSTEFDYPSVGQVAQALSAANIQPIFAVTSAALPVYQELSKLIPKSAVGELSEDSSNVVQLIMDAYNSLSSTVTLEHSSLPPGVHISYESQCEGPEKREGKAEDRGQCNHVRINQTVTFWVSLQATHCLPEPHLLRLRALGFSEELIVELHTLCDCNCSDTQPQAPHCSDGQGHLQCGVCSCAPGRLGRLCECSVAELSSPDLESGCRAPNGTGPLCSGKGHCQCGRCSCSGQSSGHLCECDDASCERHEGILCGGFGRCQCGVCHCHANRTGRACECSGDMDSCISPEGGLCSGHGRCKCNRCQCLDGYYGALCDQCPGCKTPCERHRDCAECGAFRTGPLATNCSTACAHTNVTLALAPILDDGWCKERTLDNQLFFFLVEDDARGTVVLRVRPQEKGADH
Assay: MAdCAM-1/α4β7 integrin binding inhibition activity evaluation test (α4β7-MAdCAM-1 ELISA)
Details: plate-coated recombinant human MAdCAM-1, recombinant human α4β7, 2 h room temperature, free form of compound
Exercise: state measured IC50 for each of the compounds provided.
One number for each entry, in nM.

Cn1c(=O)n(-c2ccc(C[C@H](NC(=O)c3c(F)cccc3Cl)C(=O)O)cc2)c2cc(Cl)c(Cl)cc21 ... 4.19
O=C(N[C@@H](Cc1ccc(N2C(=O)C3(CCOCC3)c3cccc(Cl)c32)cc1)C(=O)O)c1c(F)cccc1Cl ... 16.1
O=C(N[C@@H](Cc1ccc(N2C(=O)C3(CC3)c3cccc(Cl)c32)cc1)C(=O)O)c1c(Cl)cc(N2CC3CC2CO3)cc1Cl (stereo partly shown) ... 4.15

Consider the record given below.
// IC50 value for O=C(N[C@@H](Cc1ccc(N2C(=O)C3(CC3)c3ccc(F)cc32)cc1)C(=O)O)c1c(F)cccc1Cl : 8.02

###

Target: recombinant human integrin α4β7 (binding to recombinant human MAdCAM-1) (Homo sapiens (Human), UniProt P13612+P26010)
Assay: MAdCAM-1/α4β7 integrin binding inhibition activity evaluation test (α4β7-MAdCAM-1 ELISA)
Details: plate-coated recombinant human MAdCAM-1, recombinant human α4β7, 2 h room temperature, free form of compound
measurement kind: IC50
The number alone won't do; follow it with the unit.

CN(C)c1ccc2c(c1)C1(CC1)C(=O)N2c1ccc(C[C@H](NC(=O)c2c(F)cccc2Cl)C(=O)O)cc1 ... 4.15 nM
O=C(N[C@@H](Cc1ccc(N2C(=O)C3(CC3)c3cccc(F)c32)cc1)C(=O)O)c1c(F)cccc1Cl ... 6.21 nM
Cn1c(=O)n(-c2ccc(C[C@H](NC(=O)c3c(F)cccc3Cl)C(=O)O)cc2)c2c(F)cc(F)cc21 ... 5.34 nM
O=C(N[C@@H](Cc1ccc(N2C(=O)C3(CC3)c3cc(F)c(Cl)cc32)cc1)C(=O)O)c1c(F)cccc1Cl ... 17.6 nM
CN(C)c1ccc2c(c1)n(C)c(=O)n2-c1ccc(C[C@H](NC(=O)c2c(F)cccc2Cl)C(=O)O)cc1 ... 5.09 nM

Provide the reported IC50 of each entry below, same order.
1. O=C(N[C@@H](Cc1ccc(N2C(=O)C3(CC3)c3cc(F)c(F)cc32)cc1)C(=O)O)c1c(F)cccc1Cl
2. CN(C)c1cc2c(cc1F)C1(CC1)C(=O)N2c1ccc(C[C@H](NC(=O)c2c(F)cccc2Cl)C(=O)O)cc1

// result
1: 14.3 nM; 2: 3.05 nM

###

Exercise: state measured IC50 for each of the compounds provided.
Target: recombinant human integrin α4β7 (binding to recombinant human MAdCAM-1) (Homo sapiens (Human), UniProt P13612+P26010)
Experiment: MAdCAM-1/α4β7 integrin binding inhibition activity evaluation test (α4β7-MAdCAM-1 ELISA)
Conditions: plate-coated recombinant human MAdCAM-1, recombinant human α4β7, 2 h room temperature, free form of compound
Numbers only, in nM.

Illustrative cases are given below, each with its answer.
Cn1c(=O)n(-c2ccc(C[C@H](NC(=O)c3c(F)cccc3Cl)C(=O)O)cc2)c2c(F)c(F)ccc21 ... 2.7
O=C(N[C@@H](Cc1ccc(-n2c(=O)n(C3CC3)c3cc(Cl)ccc32)cc1)C(=O)O)c1c(Cl)cccc1Cl ... 143

// IC50 value for O=C(N[C@@H](Cc1ccc(N2C(=O)C3(CC3)c3cccc(Cl)c32)cc1)C(=O)O)c1c(Cl)cc(N2CCC(N3CCOCC3)CC2)cc1Cl : 23.7
